# tested_system: T1, hu-M-IL1RAP construct, positions S21-T367 (extracellular domain of the membrane form of human IL1RAP) (human, UniProt Q9NPH3 21-367)
# T1 construct: Biotinylated when captured on the Biacore chip
# T1 sequence: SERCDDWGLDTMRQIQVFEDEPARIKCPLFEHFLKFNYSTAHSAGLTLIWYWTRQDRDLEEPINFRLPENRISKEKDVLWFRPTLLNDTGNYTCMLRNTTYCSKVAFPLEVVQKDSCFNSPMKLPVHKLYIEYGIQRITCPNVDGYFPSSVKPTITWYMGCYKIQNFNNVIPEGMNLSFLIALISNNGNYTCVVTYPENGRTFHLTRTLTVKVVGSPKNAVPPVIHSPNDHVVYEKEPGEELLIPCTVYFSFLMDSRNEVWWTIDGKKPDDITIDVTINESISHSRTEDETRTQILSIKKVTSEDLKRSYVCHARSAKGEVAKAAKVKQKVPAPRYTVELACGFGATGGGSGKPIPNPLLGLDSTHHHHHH
# assay_overview: SPR, Fab analyte, 25 C
parameter_measured: koff (s⁻¹)
Give the value, in units of s⁻¹, as a plain number.

Query: Requested field: koff. Item: H3 Fab (VH V51S) (Fab, V domains shown, Fab with 8xHis tag) VH: EVQLVESGGGLVQPGGSLRLSCAASGFTFSNYAMSWVRQAPGKGLEWVATSTEGGDYNYYLDDVKGRFTISRDNAKNSLYLQMNSLRAEDTAVYYCARDRWPYFFDYWGQGTLVTVSS VL: DIQMTQSPSSLSASVGDRVTITCRASENIYSNLAWYQQKPGKSPKLLVYGAKNLADGVPSRFSGSGSGTDYTLTISSLQPEDFATYYCQHFWTTPRTFGGGTKVEIK
Reply: 0.000208

Query: Looking for the measured koff of H6 Fab (VH R96Q) (Fab, V domains shown, Fab with 8xHis tag) VH: EVQLVESGGGLVQPGGSLRLSCAASGFTFSNYAMSWVRQAPGKGLEWVATVTEGGDYNYYLDDVKGRFTISRDNAKNSLYLQMNSLRAEDTAVYYCARDQWPYFFDYWGQGTLVTVSS VL: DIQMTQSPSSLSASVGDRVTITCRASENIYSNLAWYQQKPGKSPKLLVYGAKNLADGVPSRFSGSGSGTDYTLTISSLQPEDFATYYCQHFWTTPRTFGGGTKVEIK , can you help?
Reply: 0.00025
